target: T1, human serum albumin (HSA, Sigma-Aldrich) (human, UniProt P02768 25-609); experiment: BIAcore, HSA on CM5 chip
T1 construct: also called human albumin
T1 sequence (P02768 25-609 limits assumed): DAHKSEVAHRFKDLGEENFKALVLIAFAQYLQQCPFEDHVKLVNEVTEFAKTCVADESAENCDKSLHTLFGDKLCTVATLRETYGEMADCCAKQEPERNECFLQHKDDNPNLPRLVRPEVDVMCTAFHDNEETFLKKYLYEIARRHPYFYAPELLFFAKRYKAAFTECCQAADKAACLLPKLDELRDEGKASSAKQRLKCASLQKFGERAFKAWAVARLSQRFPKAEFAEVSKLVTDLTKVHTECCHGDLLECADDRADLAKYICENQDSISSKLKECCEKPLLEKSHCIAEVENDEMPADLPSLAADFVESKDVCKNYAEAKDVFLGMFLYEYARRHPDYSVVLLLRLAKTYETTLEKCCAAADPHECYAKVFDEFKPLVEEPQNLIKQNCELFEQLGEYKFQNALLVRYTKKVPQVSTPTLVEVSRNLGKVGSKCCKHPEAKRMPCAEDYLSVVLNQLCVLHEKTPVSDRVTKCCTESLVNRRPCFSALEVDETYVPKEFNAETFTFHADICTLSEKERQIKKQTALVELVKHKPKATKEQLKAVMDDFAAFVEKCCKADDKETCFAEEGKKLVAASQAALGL
measured_attribute: koff (s⁻¹)
Form entry: value (s⁻¹) — number only.

Req: I have this binder here, DMS0182 (bispecific antibody, in-line fusion of an anti-TNFR1 dAb and an anti-serum albumin dAb (AlbudAb)) EVQLLESGGGLVQPGGSLRLSCAASGFTFVKYSMGWVRQAPGKGPEWVSQISNTGDRTYYADSVKGRFTISRDNSKNTLYLQMNSLRAEDTAVYYCAIYTGRWEPFDYWGQGTLVTVSSASTDIQMTQSPSSLSASVGDRVTITCRASRPIGTTLSWYQQKPGKAPKLLIWFGSRLQSGVPSRFSGSGSGTDFTLTISSLQPEDFATYYCAQAGTHPTTFGQGTKVEIKRAAAEQKLISEEDLN , and I need its recorded koff.
Resp: 0.17
